# testSummary: NCI Yeast Anticancer Drug Screen. Data for the rad50 strain (AID 155)
# testContext: S. cerevisiae rad50 strain growth inhibition; at 50.0 µM; active compounds read high
Compounds without any hit were thinned out: in the full panel of roughly 79,000, 15% have a hit.
Cut-off 90% on growth inhibition, inclusive. At or above means criterion met; below means criterion not met.

q: For this molecule, is measured growth inhibition 90% or higher? `CCN(CC)C(=S)N/N=C(/c1ccccc1)c1ccccn1`
a: criterion not met

q: Test whether the molecule `Cc1ccc(S(=O)(=O)/C=C2\COc3ccccc3C2=O)cc1` records growth inhibition of 90% or higher.
a: criterion met

q: Does the molecule `ClCc1ccc2oc3ccccc3c2c1` have recorded growth inhibition that is 90% or more?
a: criterion not met

q: Item `CCCCOc1ccc(-c2c(COC(=O)NC)c(COC(=O)NC)c(C)n2C)cc1` with growth inhibition of 90% or above?
a: criterion not met

q: Item COC(=O)C1=C(C)NC(c2ccc(OC)cc2OC)C(C(=O)OC)=C1C (stereo not given) with growth inhibition of 90% or above?
a: criterion not met

q: Check the entry `CCOC(=O)c1c(N)c(=O)n2c3c(cccc13)CC2` : does growth inhibition equal or exceed 90%?
a: criterion met

q: Reported growth inhibition reaches at least 90% for CC(C)=CCC(OC(=O)CC(C)C)C1=CC(=O)c2c(O)ccc(O)c2C1=O (stereo not given) ?
a: criterion not met

q: Does the reported growth inhibition for `COc1ccc(N=C2C(=S)N(c3ccc(OC)cc3)/C(=N/S(=O)(=O)c3ccccc3)N2c2ccccc2)cc1` fall at or above the 90% mark?
a: criterion not met

q: Hello, I need to know if `O=[N+]([O-])c1c(Cl)cccc1-c1c[nH]cc1Cl` has measured growth inhibition not below 90%. Thanks!
a: criterion met

q: Quick check, growth inhibition >= 90%? O=C1C(=O)C(Cc2ccccc2)(c2ccccc2)C(=O)N1c1ccccc1 (stereo not given)
a: criterion not met

q: Check if growth inhibition >= 90% (inclusive). Item: `CNc1c(C(=O)Nc2ccccc2)c(=O)n(C)c(=O)n1C`
a: criterion not met

q: Quick check: does `Cc1[nH]nc(C(=O)N(C)C)c1N=NN(C)C` have growth inhibition greater than or equal to 90%?
a: criterion met

q: Reported growth inhibition reaches at least 90% for `CCCCCOCC(=O)OC` ?
a: criterion not met

q: Dear colleague, could you confirm whether O=S1(=O)c2ccccc2C(Br)C1Br (stereo not given) has growth inhibition at or above 90%?
a: criterion met

q: Does CC(=O)NC1CCCCC1CC1CCCCC1 (stereo not given) have a reported growth inhibition of at least 90%?
a: criterion not met

q: Confirm if growth inhibition reported for the molecule `CC(C)(C)NC(=S)N/N=C/c1cc(Cl)cc(Cl)c1O` is 90% or above.
a: criterion not met

q: growth inhibition >= 90% for `CC(C)(C)OC(=O)N(CCCCNC(=O)OCc1ccccc1)CCCNC(=O)OCc1ccccc1` ?
a: criterion not met

q: Form field: growth inhibition at least 90%? Entry: `NC(=Nc1ccccc1)c1ccc2c(c1)c1c(n2Cc2ccccc2)CCCC1`
a: criterion met

q: Exam item: decide whether the reported growth inhibition for `C/C(=N/NC(=S)N1CCCC1)c1cccc(/C(C)=N\NC(=S)N2CCCC2)n1` is at least 90%.
a: criterion not met

q: Dear colleague, could you confirm whether N#CC1C(=O)NC(=O)CC1c1ccccc1 (stereo not given) has growth inhibition at or above 90%?
a: criterion met

q: Does the molecule `C/C(=N\NC(=S)N1CCCC1)c1cnccn1` have recorded growth inhibition that is 90% or more?
a: criterion met

q: Check the entry `C(=NCCc1ccccc1)c1ccccc1B1OB(c2ccccc2C=NCCc2ccccc2)OB(c2ccccc2C=NCCc2ccccc2)O1` : does growth inhibition equal or exceed 90%?
a: criterion met

q: Confirm if growth inhibition reported for the molecule O=C(CCN1CCCCC1)N1CCc2c([nH]c3ccccc23)C1c1cccnc1 (stereo not given) is 90% or above.
a: criterion not met

q: Can `CN(C)CC(=O)OCC[N+](C)(C)C` be said to have growth inhibition at or above 90%?
a: criterion not met

q: Decide: is the reported value of growth inhibition for `CCCn1cnc2c(SCc3ccc(Cl)cc3Cl)nc(N)nc21` equal to or greater than 90%?
a: criterion met

q: Item COc1nc(NC2OC(CO)C(O)C(O)C2O)c(Cl)c(=O)[nH]1 (stereo not given) with growth inhibition of 90% or above?
a: criterion not met

q: Say whether `CCCCCCCCCCCCCCNC(=O)C[N+](C)(C)Cc1ccccc1` shows growth inhibition of 90% or more.
a: criterion met

q: I'd appreciate it if you could say whether `O=C(O)c1ccccc1/C=C1\Cc2ccc3c(c2C1=O)CCCC3` has growth inhibition at least equal to 90%.
a: criterion not met

q: # check: growth inhibition of `C[C@]12C/C(=C/C(F)(F)F)C(=O)C[C@@H]1CC[C@@H]1[C@@H]2CC[C@]2(C)[C@@H](C(=O)O)CC[C@@H]12` is greater than or equal to 90%
a: criterion not met

q: Kindly determine if growth inhibition recorded for `Cn1c(CN(Cc2nc3ccccc3n2C)Cc2nc3ccccc3n2C)nc2ccccc21` is above or exactly 90%.
a: criterion not met

q: Form field: growth inhibition at least 90%? Entry: `CCCCCCSc1nn(CCC#N)c(=O)[nH]c1=O`
a: criterion met

q: Hello, I need to know if `Cc1[nH]nc(C(=O)OC(C)C)c1N=NN(C)C` has measured growth inhibition not below 90%. Thanks!
a: criterion met

q: Could you please find out whether OCC1OC(NC(=S)NCSCCC(F)(F)C(F)(F)C(F)(F)C(F)(F)C(F)(F)C(F)(F)F)C(O)C(O)C1O (stereo not given) has growth inhibition that meets 90% or exceeds it?
a: criterion not met

q: Determine whether this molecule has growth inhibition no lower than 90%: N#CC(CC(=O)O)C(c1cccc2ccccc12)c1cccc2ccccc12 (stereo not given)
a: criterion met

q: Reported growth inhibition reaches at least 90% for `NS(=O)(=O)c1ccc(N=Cc2c3ccccc3nc3cc(Cl)ccc23)cc1` ?
a: criterion not met

q: Determine whether this molecule has growth inhibition no lower than 90%: `CC(=O)OC(OC(C)=O)c1ccc([N+](=O)[O-])s1`
a: criterion met

q: Confirm if growth inhibition reported for the molecule `N=C(N)c1ccc(OCCCCOc2ccc(N)cc2Cl)cc1` is 90% or above.
a: criterion not met

q: Could you please find out whether `Cc1cc(C)nc(NS(=O)(=O)c2ccc(NC(=O)c3cccnc3Nc3cccc(Cl)c3)cc2)n1` has growth inhibition that meets 90% or exceeds it?
a: criterion not met

These data points were gathered from PubChem BioAssay (NCI).
